The measurements presented in this section are drawn from patent US8461107B2.

# targetOfAssay: HCV genotype 1b (BK) NS3 modified with a R155K mutation (Hepatitis C virus genotype 1b, UniProt P26663, R1181K)
# Construct: HCV genotype 1b (BK) NS3 modified with a R155K mutation
# procedureText: HCV NS3 protease time-resolved fluorescence (TRF) assay, NS3 protease 1b R155K Ki activity
# testConditions: HCV genotype 1b (BK) NS3 with R155K mutation; TRF peptide substrate 100 nM; Ki derived from IC50
measurementKind: Ki

Requested field: Ki. Item: `CC[C@@H]1C[C@]1(NC(=O)[C@@H]1C[C@@H]2CN1C(=O)[C@H](C1CCCC1)NC(=O)O[C@@H]1CCC[C@H]1CC/C=C/Cn1c(nc3cc(Br)ccc3c1=O)O2)C(=O)NS(=O)(=O)C1CC1` 0.1 to 0.5 nM

Requested field: Ki. Item: C=C[C@@H]1C[C@]1(NC(=O)[C@@H]1C[C@@H]2CN1C(=O)[C@H](C1CCCC1)NC(=O)O[C@@H]1CCC[C@H]1CCCC1CC1Cn1c(cc3ccccc3c1=O)O2)C(=O)NS(=O)(=O)C1CC1 (some centres unmarked) 0.5 to 1 nM

Requested field: Ki. Item: `C=C[C@@H]1C[C@]1(NC(=O)[C@@H]1C[C@@H]2CN1C(=O)[C@H](C1CCCC1)NC(=O)O[C@@H]1CCC[C@H]1CCCCCn1c(cc3cc(OC)ccc3c1=O)O2)C(=O)NS(=O)(=O)C1CC1` < 0.1 nM

Requested field: Ki. Item: `CC[C@@H]1C[C@]1(NC(=O)[C@@H]1C[C@@H]2CN1C(=O)[C@H](C1CCCC1)NC(=O)O[C@@H]1CCC[C@H]1CC/C=C/Cn1c(nc3cc(C#N)ccc3c1=O)O2)C(=O)NS(=O)(=O)C1CC1` 0.1 to 0.5 nM

Requested field: Ki. Item: `C=C[C@@H]1C[C@]1(NC(=O)[C@@H]1C[C@@H]2CN1C(=O)[C@H](C1CCCC1)NC(=O)O[C@@H]1CCC[C@H]1CCCCCn1c(cc3ccc(F)cc3c1=O)O2)C(=O)NS(=O)(=O)C1CC1` < 0.1 nM

====

Exercise: for every item that follows, state its recorded pKi.
# targetOfAssay: HCV genotype 1b (BK) NS3 modified with a R155K mutation (Hepatitis C virus genotype 1b, UniProt P26663, R1181K)
# Construct: HCV genotype 1b (BK) NS3 modified with a R155K mutation
# procedureText: HCV NS3 protease time-resolved fluorescence (TRF) assay, NS3 protease 1b R155K Ki activity
# testConditions: HCV genotype 1b (BK) NS3 with R155K mutation; TRF peptide substrate 100 nM; Ki derived from IC50
pKi: −log10 of the molar value.

Requested field: pKi. Item: `C=C[C@@H]1C[C@]1(NC(=O)[C@@H]1C[C@@H]2CN1C(=O)[C@H](C1CCCC1)NC(=O)O[C@@H]1CCC[C@H]1CCCCCn1c(nc3cc(Br)ccc3c1=O)O2)C(=O)NS(=O)(=O)C1CC1` 9.30 to 10.00

Requested field: pKi. Item: `C=C[C@@H]1C[C@]1(NC(=O)[C@@H]1C[C@@H]2CN1C(=O)[C@H](C1CCCC1)NC(=O)O[C@@H]1CCC[C@H]1C/C=C/CCn1c(cc3cc(OC)ccc3c1=O)O2)C(=O)NS(=O)(=O)C1CC1` > 10.00

Requested field: pKi. Item: `C=C[C@@H]1C[C@]1(NC(=O)[C@@H]1C[C@@H]2CN1C(=O)[C@H](C1CCCC1)NC(=O)O[C@@H]1CCC[C@H]1CC/C=C/Cn1c(nc3cc(C#N)ccc3c1=O)O2)C(=O)NS(=O)(=O)C1CC1` > 10.00

Requested field: pKi. Item: `CC[C@@H]1C[C@]1(NC(=O)[C@@H]1C[C@@H]2CN1C(=O)[C@H](C1CCCC1)NC(=O)O[C@@H]1CCC[C@H]1CCCCCn1c(nc3cc(-c4ccccc4)ccc3c1=O)O2)C(=O)NS(=O)(=O)C1CC1` 9.30 to 10.00

Requested field: pKi. Item: `C=C[C@@H]1C[C@]1(NC(=O)[C@@H]1C[C@@H]2CN1C(=O)[C@H](C(C)(C)C)NC(=O)O[C@@H]1CCC[C@H]1CCCCCn1c(cc3cc(Cl)ccc3c1=O)O2)C(=O)NS(=O)(=O)C1CC1` > 10.00

Requested field: pKi. Item: `C=C[C@@H]1C[C@]1(NC(=O)[C@@H]1C[C@@H]2CN1C(=O)[C@H](C1CCCC1)NC(=O)O[C@@H]1C[C@H]1CCCCCn1c(cc3ccccc3c1=O)O2)C(=O)NS(=O)(=O)C1CC1` > 10.00

Requested field: pKi. Item: `CC[C@@H]1C[C@]1(NC(=O)[C@@H]1C[C@@H]2CN1C(=O)[C@H](C1CCCC1)NC(=O)O[C@@H]1CCC[C@H]1CC/C=C/Cc1c(nc3cc(OC)ccn3c1=O)O2)C(=O)NS(=O)(=O)C1CC1` 9.30 to 10.00

Requested field: pKi. Item: `C=C[C@@H]1C[C@]1(NC(=O)[C@@H]1C[C@@H]2CN1C(=O)[C@H](C(C)(C)C)NC(=O)O[C@@H]1CCC[C@H]1CCCCCn1c(cc3cc(OC)ccc3c1=O)O2)C(=O)NS(=O)(=O)C1CC1` > 10.00

Requested field: pKi. Item: `C=C[C@@H]1C[C@]1(NC(=O)[C@@H]1C[C@@H]2CN1C(=O)[C@H](C1CCCC1)NC(=O)O[C@@H]1CCC[C@H]1CCCCCn1c(nc3cc(C#N)ccc3c1=O)O2)C(=O)NS(=O)(=O)C1CC1` 9.30 to 10.00

Requested field: pKi. Item: `CC[C@@H]1C[C@]1(NC(=O)[C@@H]1C[C@@H]2CN1C(=O)[C@H](C1CCCC1)NC(=O)O[C@@H]1CCC[C@H]1CC/C=C/Cn1c(nc3cc(C(F)(F)F)ccc3c1=O)O2)C(=O)NS(=O)(=O)C1CC1` > 10.00

====

# targetOfAssay: HCV genotype 1b (BK) NS3 modified with a R155K mutation (Hepatitis C virus genotype 1b, UniProt P26663, R1181K)
# Construct: HCV genotype 1b (BK) NS3 modified with a R155K mutation
# procedureText: HCV NS3 protease time-resolved fluorescence (TRF) assay, NS3 protease 1b R155K Ki activity
# testConditions: HCV genotype 1b (BK) NS3 with R155K mutation; TRF peptide substrate 100 nM; Ki derived from IC50
# Protocol: The HCV NS3 protease inhibitory activity of the present compounds may be tested using assays known in the art. One such assay is HCV NS3 protease time-resolved fluorescence (TRF) assay as described below and in International Patent Application Publication WO 2006/102087. […] The HCV NS3 protease inhibitory activity was measured using the protease time-resolved fluorescence (TRF) assay as described below and in International Patent Application Publication WO 2006/102087. […]
measurementKind: Ki

Requested field: Ki. Item: `C=C[C@@H]1C[C@]1(NC(=O)[C@@H]1C[C@@H]2CN1C(=O)[C@H](C1CCCC1)NC(=O)O[C@@H]1CCC[C@H]1C/C=C/CCn1c(cc3cc(Cl)ccc3c1=O)O2)C(=O)NS(=O)(=O)C1CC1` < 0.1 nM

Requested field: Ki. Item: `C=C[C@@H]1C[C@]1(NC(=O)[C@@H]1C[C@@H]2CN1C(=O)[C@H](C1CCCC1)NC(=O)O[C@@H]1CCC[C@H]1CCCCCn1c(nc3cc(C(F)(F)F)ccc3c1=O)O2)C(=O)NS(=O)(=O)C1CC1` 0.1 to 0.5 nM

Requested field: Ki. Item: `CC[C@@H]1C[C@]1(NC(=O)[C@@H]1C[C@@H]2CN1C(=O)[C@H](C1CCCC1)NC(=O)O[C@@H]1CCC[C@H]1CCCCCn1c(nc3ccccc3c1=O)O2)C(=O)NS(=O)(=O)C1CC1` 0.1 to 0.5 nM

Requested field: Ki. Item: `CC[C@@H]1C[C@]1(NC(=O)[C@@H]1C[C@@H]2CN1C(=O)[C@H](C1CCCC1)NC(=O)O[C@H]1C[C@@H]1CCCCCn1c(cc3ccccc3c1=O)O2)C(=O)NS(=O)(=O)C1CC1` 0.1 to 0.5 nM

Requested field: Ki. Item: `C=C[C@@H]1C[C@]1(NC(=O)[C@@H]1C[C@@H]2CN1C(=O)[C@H](C1CCCC1)NC(=O)O[C@@H]1CCC[C@H]1CCCCCn1c(ccc(-c3ccccc3)c1=O)O2)C(=O)NS(=O)(=O)C1CC1` 0.1 to 0.5 nM

Requested field: Ki. Item: `C=C[C@@H]1C[C@]1(NC(=O)[C@@H]1C[C@@H]2CN1C(=O)[C@H](C1CCCC1)NC(=O)O[C@@H]1CCC[C@H]1CCC/C=C/Cn1c(cc3ccccc3c1=O)O2)C(=O)NS(=O)(=O)C1CC1` 0.1 to 0.5 nM

Requested field: Ki. Item: `C=C[C@@H]1C[C@]1(NC(=O)[C@@H]1C[C@@H]2CN1C(=O)[C@H](C1CCCC1)NC(=O)O[C@@H]1CCC[C@H]1CC/C=C/Cn1c(nc3cc(S(C)(=O)=O)ccc3c1=O)O2)C(=O)NS(=O)(=O)C1CC1` < 0.1 nM

Requested field: Ki. Item: C=C[C@@H]1C[C@]1(NC(=O)[C@@H]1C[C@@H]2CN1C(=O)[C@H](C1CCCC1)NC(=O)O[C@@H]1CCC[C@H]1CCCCn1c(cc3ccccc3c1=O)O2)C(=O)NS(=O)(=O)C1CC1 [Example 19] 0.1 to 0.5 nM

Requested field: Ki. Item: `CC[C@@H]1C[C@]1(NC(=O)[C@@H]1C[C@@H]2CN1C(=O)[C@H](C1CCCC1)NC(=O)O[C@@H]1CCC[C@H]1CC/C=C/Cn1c(nc3ccccc3c1=O)O2)C(=O)NS(=O)(=O)C1CC1` 0.1 to 0.5 nM

Requested field: Ki. Item: `CC[C@@H]1C[C@]1(NC(=O)[C@@H]1C[C@@H]2CN1C(=O)[C@H](C(C)(C)C)NC(=O)O[C@@H]1CCC[C@H]1CCCCCCn1c(cc3ccccc3c1=O)O2)C(=O)NS(=O)(=O)C1CC1` 1 to 5 nM
